// provenance: patent US20260297042A1

target: WEE1 (Homo sapiens, UniProt P30291); construct: purchased Thermo Fisher PR7373A; assay: Selectivity versus WEE1 assay (ADP-Glo enzymatic assay); assay type: biochemical; conditions: fold difference in selectivity for PKMYT1 over WEE1; banded
Sequence (P30291 whole entry): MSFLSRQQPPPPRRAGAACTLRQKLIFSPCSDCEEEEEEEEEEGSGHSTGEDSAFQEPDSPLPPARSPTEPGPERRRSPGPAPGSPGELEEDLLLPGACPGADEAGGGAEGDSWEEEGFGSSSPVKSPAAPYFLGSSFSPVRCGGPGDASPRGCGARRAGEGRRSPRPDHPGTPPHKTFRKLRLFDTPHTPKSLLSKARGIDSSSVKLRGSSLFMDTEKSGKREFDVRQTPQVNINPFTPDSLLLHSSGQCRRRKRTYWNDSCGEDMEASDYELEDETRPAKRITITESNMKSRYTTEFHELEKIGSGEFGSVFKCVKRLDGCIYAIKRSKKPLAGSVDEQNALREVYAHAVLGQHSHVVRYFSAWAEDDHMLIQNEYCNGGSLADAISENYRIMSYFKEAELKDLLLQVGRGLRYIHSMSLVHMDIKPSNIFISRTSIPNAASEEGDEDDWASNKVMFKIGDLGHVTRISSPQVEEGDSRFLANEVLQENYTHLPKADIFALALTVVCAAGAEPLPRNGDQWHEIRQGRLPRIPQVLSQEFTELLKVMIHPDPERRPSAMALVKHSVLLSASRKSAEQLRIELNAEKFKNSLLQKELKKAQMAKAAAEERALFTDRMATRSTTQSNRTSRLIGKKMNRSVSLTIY
Structures can show the parent of a compound that is named as a salt.
property: PKMYT1 vs. WEE1 selectivity

For orientation, consider the following solved cases.
The value of PKMYT1 vs. WEE1 selectivity measured for the molecule Cc1ccc(O)c(C)c1NC(=O)c1cnc(Nc2nc(C(F)(F)F)co2)s1 turned out to be W (10-<100 fold)

The value of PKMYT1 vs. WEE1 selectivity measured for the molecule CCN(CCC#N)C(=O)Cn1cc(C)c(Nc2ncc(C(=O)Nc3c(C)ccc(O)c3C)s2)n1 turned out to be X (100-<1000 fold)

The value of PKMYT1 vs. WEE1 selectivity measured for the molecule Cc1ccc(O)c(C)c1NC(=O)c1cnc(Nc2nn(CCBr)cc2Cl)s1 turned out to be W (10-<100 fold)

The value of PKMYT1 vs. WEE1 selectivity measured for the molecule Cc1cn(CC(=O)N(C)C2CC2)nc1Nc1ncc(C(=O)Nc2c(C)ccc(O)c2C)s1 turned out to be X (100-<1000 fold)

The value of PKMYT1 vs. WEE1 selectivity measured for the molecule CCN(CC)C(=O)C(C)n1nc(Nc2ncc(C(=O)Nc3c(C)ccc(O)c3C)s2)cc1C (stereo not drawn) turned out to be X (100-<1000 fold)

The value of PKMYT1 vs. WEE1 selectivity measured for the molecule Cc1ccc(O)c(C)c1NC(=O)c1cnc(Nc2ccn(C(C)C(=O)N3CCN(C)CC3)n2)s1 (stereo not drawn) turned out to be Y (1000-5000 fold)

The value of PKMYT1 vs. WEE1 selectivity measured for the molecule CCC(C(=O)N(C)C)n1ccc(Nc2ncc(C(=O)Nc3c(C)ccc(O)c3C)s2)n1 (stereo not drawn) turned out to be X (100-<1000 fold)

The value of PKMYT1 vs. WEE1 selectivity measured for the molecule CCN(CC)C(=O)C(CO)n1cc(C)c(Nc2ncc(C(=O)Nc3c(C)ccc(O)c3C)s2)n1 (stereo not drawn) turned out to be X (100-<1000 fold)

The value of PKMYT1 vs. WEE1 selectivity measured for the molecule CCn1nc(Nc2ncc(C(=O)Nc3c(C)ccc(O)c3C)s2)c2cc(C(F)(F)F)ccc21 turned out to be Y (1000-5000 fold)

The value of PKMYT1 vs. WEE1 selectivity measured for the molecule CCc1c(O)ccc(C)c1NC(=O)c1cnc(Nc2ccn(C)n2)s1 turned out to be X (100-<1000 fold)

***
The value of PKMYT1 vs. WEE1 selectivity measured for the molecule Cc1cn(C)nc1Nc1nnc(C(=O)Nc2c(C)ccc(O)c2C)s1 turned out to be Y (1000-5000 fold)

The value of PKMYT1 vs. WEE1 selectivity measured for the molecule Cc1ccc(O)c(C)c1NC(=O)c1cnc(Nc2cccc3c2OCC3)s1 [BAA-530, TFA salt] turned out to be X (100-<1000 fold)

The value of PKMYT1 vs. WEE1 selectivity measured for the molecule Cc1ccc(O)c(C)c1NC(=O)c1cnc(Nc2cccc(C3CC3)n2)s1 turned out to be X (100-<1000 fold)

The value of PKMYT1 vs. WEE1 selectivity measured for the molecule CCc1cn(CC(F)F)nc1Nc1ncc(C(=O)Nc2c(C)ccc(O)c2C)s1 turned out to be X (100-<1000 fold)
